Assay: Volume of distribution in Wistar rat at 5 mg/kg, iv
Type: ADME, organism-based
Conditions: in vivo
quantity.kind: Vd (L/kg)
Numbers only, in L/kg.

QUERY: Find the measured Vd of O=C(NC1CCC(O)CC1)c1csc(-c2ccc(OC(F)F)c3oc4ccccc4c23)n1 (stereo unspecified) and report it.
RESULT: 1

----------
Molecular target: 3',5'-cyclic-AMP phosphodiesterase 4B (Homo sapiens)
Sequence (Q07343 whole entry): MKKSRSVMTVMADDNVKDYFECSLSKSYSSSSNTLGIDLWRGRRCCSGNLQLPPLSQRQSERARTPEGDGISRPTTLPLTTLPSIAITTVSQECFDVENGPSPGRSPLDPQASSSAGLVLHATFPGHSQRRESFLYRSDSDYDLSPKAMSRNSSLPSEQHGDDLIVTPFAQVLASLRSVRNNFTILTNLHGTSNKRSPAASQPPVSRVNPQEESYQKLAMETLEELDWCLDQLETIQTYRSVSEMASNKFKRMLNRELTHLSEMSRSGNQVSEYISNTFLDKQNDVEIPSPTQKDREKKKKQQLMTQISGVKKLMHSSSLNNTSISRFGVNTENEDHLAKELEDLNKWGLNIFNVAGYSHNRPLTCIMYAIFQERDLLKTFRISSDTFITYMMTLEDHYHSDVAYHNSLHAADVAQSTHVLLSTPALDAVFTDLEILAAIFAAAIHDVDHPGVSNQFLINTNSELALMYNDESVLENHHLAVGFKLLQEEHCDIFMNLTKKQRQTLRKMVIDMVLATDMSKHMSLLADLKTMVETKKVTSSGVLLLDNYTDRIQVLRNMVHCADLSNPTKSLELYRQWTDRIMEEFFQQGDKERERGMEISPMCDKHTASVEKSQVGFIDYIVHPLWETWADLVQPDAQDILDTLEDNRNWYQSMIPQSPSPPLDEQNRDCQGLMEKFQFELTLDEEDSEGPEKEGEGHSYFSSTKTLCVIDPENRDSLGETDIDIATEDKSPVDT
Experiment: Inhibition of human PDE4B using [3H]CAMP as substrate at 1000 nM incubated for 5 mins followed by substrate addition and measured after 10 mins by scintillation proximity assay relative to control
Conditions: time 15.0 min
Exercise: for every item that follows, state its recorded inhibition.
Answers are plain numbers, in %.

COc1ccc(-c2nc(-c3ccc(C#N)cc3)cs2)c2c1oc1ccccc12 : 15.8

Hey, can you go through the list below and give me inhibition for every item?
1. COc1ccc(-c2nc(C(N)=O)cs2)c2c1oc1ccccc12
2. COc1ccc(-c2nc(C(=O)Nc3c(Cl)cncc3Cl)cs2)c2c1oc1ccccc12
3. COc1ccc(-c2nc(C(=O)N3CCN(c4ncccn4)CC3)cs2)c2c1oc1ccccc12
4. COc1ccc(-c2nc(-c3cccc(C(=O)O)n3)cs2)c2c1oc1ccccc12
5. O=C(Nc1c(Cl)cncc1Cl)c1csc(-c2ccc(OC(F)F)c3oc4ccccc4c23)n1
6. COc1ccc(-c2nc(CC(=O)Nc3c(Cl)cncc3Cl)cs2)c2c1oc1ccccc12
7. CCOC(=O)c1cccc(-c2csc(-c3ccc(OC)c4oc5ccccc5c34)n2)n1

RESULT:
1. 43.8
2. 92
3. 59.3
4. 26.4
5. 88.6
6. 87.8
7. 15.6

Take each entry in turn and give its inhibition.
1. COc1ccc(-c2nc(C(=O)Nc3ccccc3)cs2)c2c1oc1ccccc12
2. COc1ccc(-c2nc(C(=O)O)cs2)c2c1oc1ccccc12

RESULT:
1. 7.4
2. 80.4
